methodNotes: gradient 5% acetonitrile 3 min, to 50% in 2 min, to 85% in 15 min, held 3 min, 100 µL/min
measurementSetup: column: Zorbax Extend-C18 2.1 x 50 mm; eluents: water / acetonitrile, 0.1% formic acid
assayMetric: RP-LC retention time (s)

[[record]]
molecule = "Cc1oc(-c2ccc(NC(=O)CC3CCCC3)cc2)nc1Cn1cccn1"
outputunit = "s"
experimentalresult = 896

[[record]]
molecule = "Cc1ccc(CN2CCC[C@H]2c2nc(C3CCOCC3)n[nH]2)c(C)c1"
outputunit = "s"
experimentalresult = 590

[[record]]
molecule = "CCCC1=Nc2cc(C(=O)N3CCN(c4ccccn4)CC3)ccc2Sc2ccc(C)cc21"
outputunit = "s"
experimentalresult = 802

[[record]]
molecule = "O=C(NCCC1=CCCCC1)c1c[nH]c2ncccc12"
outputunit = "s"
experimentalresult = 968

[[record]]
molecule = "O=C1CCN(C(=O)COc2ccc(Cl)cc2Cl)c2ccccc2N1"
outputunit = "s"
experimentalresult = 792


P. Cc1cccc(C(=O)NCc2nn(C)c3ccccc23)c1
Q. COc1cccc(-n2c(=O)c(C(=O)Nc3ccccc3)c(O)c3cccnc32)c1
### Prompt Which record would sort first by descending RP-LC retention time, P or Q ? In your reply, give the label of the chosen option.
### Response Q
(Q: 1220 s, P: 814 s)

----------
methodNotes: gradient 5% acetonitrile 3 min, to 50% in 2 min, to 85% in 15 min, held 3 min, 100 µL/min
measurementSetup: column: Zorbax Extend-C18 2.1 x 50 mm; eluents: water / acetonitrile, 0.1% formic acid
assayMetric: RP-LC retention time (s)

Worked cases, RP-LC retention time given:
[[record]]
compound = "COc1ccccc1CNc1ncc(C(=O)O)c(-c2ccncc2)n1"
assaymetric = "RP-LC retention time"
experimentalresult = 638

[[record]]
compound = "Cc1ccc(N2C=C(C(=O)N3CCCC3)S(=O)(=O)c3ccc(F)cc32)cc1"
assaymetric = "RP-LC retention time"
experimentalresult = 799

[[record]]
compound = "CN1C(=O)c2cccn2CC1CNC(=O)c1cccn1C (stereo not given)"
assaymetric = "RP-LC retention time"
experimentalresult = 636

[[record]]
compound = "CN(C)C(=O)c1csc(S(=O)(=O)N2CCC(C(=O)NC3CCCCCCC3)CC2)c1"
assaymetric = "RP-LC retention time"
experimentalresult = 835

[[record]]
compound = "O=C(c1ccc(OCC2CCCN2C(=O)C2CCCCC2)cc1)N1CCCC1 (stereo not given)"
assaymetric = "RP-LC retention time"
experimentalresult = 888

[[record]]
compound = "COC1CCOC2(CCN(C(=O)c3cccs3)CC2)C1 (stereo not given)"
assaymetric = "RP-LC retention time"
experimentalresult = 703

[[record]]
compound = "O=C(Cc1c[nH]c2ccccc12)N1CCc2cc(-c3ccno3)ccc21"
assaymetric = "RP-LC retention time"
experimentalresult = 825

[[record]]
compound = "Cc1sc(-c2noc(C3CCC3)n2)cc1S(=O)(=O)N1CCC(C(=O)N2CCCCCC2)CC1"
assaymetric = "RP-LC retention time"
experimentalresult = 1180


A. CC(C)(C)c1ccc(C(=O)Nc2nnc(C3CC(=O)N(c4ccc(F)cc4)C3)o2)cc1 (stereo not given)
B. CCCn1cc(C(=O)N2CCC(N3CCCCC3)CC2)c2cccnc21
### Prompt Which record would sort first by descending RP-LC retention time, A or B ? In your reply, give the label of the chosen option.
### Response A
